Would you kindly list protein stability index for each of these variants?
B1: RHOBTB3 (parent)
chain: DSCCPAGIFQAMCLLICAEMYQVS

Variants of: B1
measurement description: protein stability index of a GFP-peptide fusion (GPS, HEK-293T) (PSI 1-6); higher = more stable;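 note: lentivirally expressed fusions sorted by FACS into six bins by GFP to DsRed ratio, PSI derived from sequencing read proportions per bin multiplied by bin number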
particulars: c terminus: a fixed tail appended

Lookup: Any idea what its protein stability index is? The variant is DLCCPAGIFQAMCLLICAEMYQVS [S2L]
Found: 2.17

Lookup: What about this variant? DSCCPAGIFQAMCLLICANMYQVS [E19N]
Found: 2.31

Lookup: What about this variant? DSCCPAGIFQAMCLLICAEMYGVS [Q22G]
Found: 3.65

Lookup: What about this variant? DSCCPAGIFQAMCLLICADMYQVS [E19D]
Found: 2.72

Lookup: What about this variant? DSCCPAGIFQAMCLLICAEMYQVN [S24N]
Found: 3.14

Lookup: What about this variant? DSCCPAGIFQAMCLLICAEMYVVS [Q22V]
Found: 3.65

Lookup: What about this variant? DSCCAAGIFQAMCLLICAEMYQVS [P5A]
Found: 1.65

Lookup: What about this variant? DSCCPAGIFQAQCLLICAEMYQVS [M12Q]
Found: 2.04

Lookup: What about this variant? DSRCPAGIFQAMCLLICAEMYQVS [C3R]
Found: 2.33

Lookup: What about this variant? DKCCPAGIFQAMCLLICAEMYQVS [S2K]
Found: 4.66

Lookup: What about this variant? DSCCPAGIFQCMCLLICAEMYQVS [A11C]
Found: 2.69

Lookup: What about this variant? DSCCPAGIFQAMCLLICAEMGQVS [Y21G]
Found: 3.18

Lookup: What about this variant? DSCCPAGIFQAMCLLICAEMYQWS [V23W]
Found: 3.16

Lookup: What about this variant? DSCCPAGIFQAMCLLLCAEMYQVS [I16L]
Found: 2.92

Lookup: What about this variant? DSCCLAGIFQAMCLLICAEMYQVS [P5L]
Found: 2.87

Lookup: What about this variant? DSCCPAGIFQAMCLLICAEMYQVL [S24L]
Found: 3.43

Lookup: What about this variant? DSCCIAGIFQAMCLLICAEMYQVS [P5I]
Found: 2.61

Lookup: What about this variant? DSCCPAGIFQAMCLLICAEMYQPS [V23P]
Found: 2.88

Lookup: What about this variant? DSCCPAGIFQAMCLLIRAEMYQVS [C17R]
Found: 4.51

Lookup: What about this variant? DSCCPAGRFQAMCLLICAEMYQVS [I8R]
Found: 2.55

Lookup: What about this variant? DSCCPAGIFQAMCLLICAEMYQVI [S24I]
Found: 1.96

Lookup: What about this variant? DSCCPAGMFQAMCLLICAEMYQVS [I8M]
Found: 1.95

Lookup: What about this variant? DSCVPAGIFQAMCLLICAEMYQVS [C4V]
Found: 2.88

Lookup: What about this variant? DSCCPAGEFQAMCLLICAEMYQVS [I8E]
Found: 1.48

Lookup: What about this variant? DSCCPAGIFQAMCLLDCAEMYQVS [I16D]
Found: 1.34

Lookup: What about this variant? DSCCPAGIFQAMCLLICAETYQVS [M20T]
Found: 2.03

Lookup: What about this variant? DSCCPAGIFQAMCLLICAEMYQVG [S24G]
Found: 2.36

Lookup: What about this variant? DSCCPAGIFQAMCELICAEMYQVS [L14E]
Found: 3.59

Lookup: What about this variant? TSCCPAGIFQAMCLLICAEMYQVS [D1T]
Found: 3.52

Lookup: What about this variant? DSCCPAGIFQAMWLLICAEMYQVS [C13W]
Found: 3.35

Lookup: What about this variant? DSCCPAGIFQAMCLLMCAEMYQVS [I16M]
Found: 2.51

Lookup: What about this variant? DSCCPAGIFQAMCLLICAEMYPVS [Q22P]
Found: 2.12

Lookup: What about this variant? DSCCPAGIFQAMCLLICAEMYDVS [Q22D]
Found: 2.17

Lookup: What about this variant? DSCCPAGIFQAMCLLICAEMYQVQ [S24Q]
Found: 3.86

Lookup: What about this variant? DSCCPAGPFQAMCLLICAEMYQVS [I8P]
Found: 1.68

Lookup: What about this variant? DSCCPAGIFQAMCLLICAEMYQVC [S24C]
Found: 2.39

Lookup: What about this variant? DSCQPAGIFQAMCLLICAEMYQVS [C4Q]
Found: 2.56

Lookup: What about this variant? RSCCPAGIFQAMCLLICAEMYQVS [D1R]
Found: 2.64

Lookup: What about this variant? DSCCPVGIFQAMCLLICAEMYQVS [A6V]
Found: 3.18

Lookup: What about this variant? DSCCPAGIFQAMCLSICAEMYQVS [L15S]
Found: 3.51
